- testSystem: Aurora B (Homo sapiens, UniProt Q96GD4)
- Construct: HT-29 cells grown in complete growth media
- Sequence (Q96GD4 whole entry): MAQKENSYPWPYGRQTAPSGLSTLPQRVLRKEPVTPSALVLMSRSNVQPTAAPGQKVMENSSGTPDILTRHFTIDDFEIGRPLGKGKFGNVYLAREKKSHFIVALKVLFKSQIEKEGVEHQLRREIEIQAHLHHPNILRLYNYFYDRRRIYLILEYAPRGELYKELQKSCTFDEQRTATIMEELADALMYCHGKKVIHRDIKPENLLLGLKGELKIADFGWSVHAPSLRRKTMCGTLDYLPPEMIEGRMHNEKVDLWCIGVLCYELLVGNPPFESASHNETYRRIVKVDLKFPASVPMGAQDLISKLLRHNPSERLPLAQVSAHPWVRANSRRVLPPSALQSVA
- procedureDetails: Aurora B cell mechanistic assay (HT-29), phospho-Histone H3 (Ser10) ELISA
- setupConditions: HT-29 cell line; inhibition of phospho-Histone H3 (Ser10); at least duplicate experiments (italicized if single experiment); read-out: Aurora B mech IC50
pIC50: −log10 of the molar value.
endpointName: pIC50

Sample records with pIC50:
Cc1c(-c2cnc3[nH]cc([C@H](C)c4c(OC[C@H](O)CO)ccc(F)c4Cl)c3c2)cnn1C [Example 127] ... < 6.00
COc1ccc(F)c(Cl)c1[C@@H](C)c1c[nH]c2ncc(-c3c(C)nn([C@H]4CC[C@H](O)CC4)c3C)cc12 [Example 6] ... < 6.00
COc1ccc(F)c(Cl)c1[C@@H](C)c1c[nH]c2ncc(-c3cn(C)nc3C)cc12 [Example 2] ... 6.70 to 7.30
[2H]C([2H])([2H])[C@H](c1c(OC)ccc(F)c1Cl)c1c[nH]c2ncc(-c3cnn([C@H]4CC[C@H](O)CC4)c3C)cc12 [Example 111] ... < 6.00
[2H][C@@](C)(c1c(OC)ccc(F)c1Cl)c1c[nH]c2ncc(-c3cnn([C@H]4CC[C@H](O)CC4)c3C)cc12 [Example 110] ... < 6.00

Param item = Cc1c(-c2cnc3[nH]cc([C@H](C)c4c(OC(F)F)ccc(F)c4Cl)c3c2)cnn1[C@H]1CC[C@H](O)CC1 [Example 74] ; retrieve measured pIC50.
6.00 to 6.70

Field entry: COc1ccc(F)c(Cl)c1[C@@H](C)c1c[nH]c2ncc(-c3cnn([C@H]4CC[C@H](O)CC4)c3Cl)cc12 [Example 49]
< 6.00

Check COc1ccc(F)c(Cl)c1[C@@H](C)c1c[nH]c2ncc(-c3cnn(C[C@H](O)CO)c3C)cc12 [Example 10] too.
6.00 to 6.70

Please do the same for COc1ccc(F)c(Cl)c1[C@@H](C)c1c[nH]c2ncc(-c3c(C)nn(CC(C)(C)O)c3C)cc12 [Example 5] as well.
< 6.00

Entry to check: [2H]C([2H])([2H])Oc1ccc(F)c(Cl)c1[C@@H](C)c1c[nH]c2ncc(-c3cnn([C@H]4CC[C@H](O)CC4)c3C)cc12 [Example 107]
< 6.00

Values compiled from patent US8445510B2.
